# protocol.text: clinical
# measurement.parameters: human, in vivo, sc, 75 mg/m2
quantity.measured: AUC (ng·h/mL)
State the answer as a number, implicitly in ng·h/mL.

Determine from records and report AUC for Nc1ncn([C@@H]2O[C@H](CO)[C@@H](O)[C@H]2O)c(=O)n1
1000

###

# protocol.text: clinical
# measurement.parameters: human, in vivo, sc, 75 mg/m2, t½
quantity.measured: half-life (h)
State the answer as a number, implicitly in h.

Determine from records and report half-life for Nc1ncn([C@@H]2O[C@H](CO)[C@@H](O)[C@H]2O)c(=O)n1
1.73

###

# protocol.text: clinical
# measurement.parameters: human, in vivo, po, 180 mg
quantity.measured: AUC
Show the value, then the unit it is measured in.

Determine from records and report AUC for Nc1ncn([C@@H]2O[C@H](CO)[C@@H](O)[C@H]2O)c(=O)n1 [azacitidine]
330 ng·h/mL
